target: NOS1, P29475; assay: holdup assay; set-up: key: below the threshold = too weak to quantify, mostly under pKd 3.1 to 4; settings: plain residues with an end cap or a label only (N-terminal biotin on a linker: ado-ado)
Sequence (P29475 9-101): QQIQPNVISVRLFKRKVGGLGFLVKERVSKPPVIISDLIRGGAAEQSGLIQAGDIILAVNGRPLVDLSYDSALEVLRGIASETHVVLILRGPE

binder	pKd
TKGPRGPTRV [SAPCD1, Q5SSQ6]	4.2
HSGYRLNDYV [CLDN14, O95500]	4.21
YRLAQESGLV [ABCC6, O95255]	below the threshold
TLPRKRMSSI [GPRC6A, Q5T6X5]	below the threshold
VKPQVSESKL [ACOT8, O14734]	below the threshold
GNSVLKSTQF [SLC22A12, Q96S37]	3.72
NLSIEKETKL [ASNSD1, Q9NWL6]	below the threshold
QSPANIYYKV [EFNB1, P52799]	below the threshold

Every entry's value here was drawn from paper PMC9482650.
